# System: MOLT-4 leukemia
# assay.overview: NCI tumour cell line growth inhibition, 48 h
Please respond with reported GI50 for every item in the list.

Completed entries (count: 4):
S=C(Nc1ccc(Cl)cc1)Nc1ccc(-c2nc3ccccc3o2)cc1    18.5 µM
Nc1nc(Cl)cc(OCC2(CO)CC(OCc3ccccc3)C2)n1 (stereo not given)    22 µM
Cc1cc(O)c(C2=NN(c3ccc(S(N)(=O)=O)cc3)C(c3ccc(N(C)C)cc3)C2)c(C)c1Cl (stereo not given)    12.7 µM
CC(=O)[O-].[Mn+3].[O-]c1ccccc1C=NCCN=Cc1ccccc1[O-]    25.7 µM

Hey, can you go through the list below and give me GI50 for every item?
1. O=c1c(O)cccc2cc(O)c(O)c(O)c12
2. Nc1ccccc1NC(=O)c1ccc(CCCC(=O)Nc2ccc(C3CC3N)cc2)cc1 (stereo not given)
3. O=C(/C=C/C=C/c1c(C2CC2)nc2ccccc2c1-c1ccc(F)cc1)c1cccs1

1. 16.9 µM
2. 1.87 µM
3. 1 µM

Report GI50 for every entry below.
1. O=C(O)c1ccc(S(=O)(=O)Nc2ccc3oc4c(c3c2)C(=O)CCC4)cc1
2. CN(C)C/C=C/C(=O)Nc1cc2c(Nc3ccc(F)c(Cl)c3F)ncnc2cc1OCCOC(F)F
3. CN(C)c1ncc(-c2ccc(C(F)(F)F)cc2)c(NC2CCCCCC2)n1

> 100 µM
1.11 µM
14.8 µM
